# TESTED_SYSTEM: Glutamate NMDA receptor
# PROTOCOL_DETAILS: Inhibition of [3H]MK-801 binding to rat NMDA receptor
pIC50: −log10 of the molar value.

# SMILES_INPUT, TESTED_SYSTEM, READOUT_RELATION, pIC50
measured = [
    ("NCCCNCCCCN(CCCN)Cc1ccccc1", "Glutamate NMDA receptor", "<", 3.52),
    ("O=C(Cc1ccccc1)NCCCNCCCCNCCCNC(=O)Cc1ccccc1", "Glutamate NMDA receptor", "=", 3.99),
    ("O=C(NCCCCNCCCNC(=O)c1ccccc1)c1ccccc1", "Glutamate NMDA receptor", "<", 3.52),
    ("N=C(N)NCCCN(CCCCN(CCCNC(=N)N)CCCc1ccccc1)CCCc1ccccc1", "Glutamate NMDA receptor", "=", 4.95),
    ("c1ccc2cc(CN(CCCNCCCCNCCCN(Cc3ccc4ccccc4c3)Cc3ccc4ccccc4c3)Cc3ccc4ccccc4c3)ccc2c1", "Glutamate NMDA receptor", "=", 5.06),
    ("c1ccc(CNCCCCNCCCNCc2ccccc2)cc1", "Glutamate NMDA receptor", "=", 5.21),
    ("N=C(N)NCCCN(CCCCN(CCCN)CCCc1ccccc1)CCCc1ccccc1", "Glutamate NMDA receptor", "=", 4.89),
    ("c1ccc(CCCN(CCCNCCCCNCCCN(CCCc2ccccc2)CCCc2ccccc2)CCCc2ccccc2)cc1", "Glutamate NMDA receptor", "=", 5.41),
    ("NCCCNCCCCNCCCNCCCc1ccccc1", "Glutamate NMDA receptor", "=", 4.59),
    ("c1ccc(CNCCCNCCCCNCCCNCc2ccccc2)cc1", "Glutamate NMDA receptor", "=", 5.21),
    ("CC(C)NCCCN(CCCCN(CCCNC(C)C)Cc1ccc2ccccc2c1)Cc1ccc2ccccc2c1", "Glutamate NMDA receptor", "=", 4.35),
    ("NCCCN(CCCCN(CCCN)Cc1ccccc1)Cc1ccccc1", "Glutamate NMDA receptor", "=", 4.42),
    ("c1ccc(CCCNCCCN(CCCCN(CCCNCCCc2ccccc2)CCCc2ccccc2)CCCc2ccccc2)cc1", "Glutamate NMDA receptor", "=", 5.08),
    ("NCCCN(CCCCN(CCCNCCCc1ccccc1)CCCc1ccccc1)CCCc1ccccc1", "Glutamate NMDA receptor", "=", 4.88),
    ("c1ccc2c(CNCCCCNCCCNCc3cccc4ccccc34)cccc2c1", "Glutamate NMDA receptor", "=", 5.36),
    ("NCCCN(CCCCN(CCCN)Cc1ccc2ccccc2c1)Cc1ccc2ccccc2c1", "Glutamate NMDA receptor", "=", 5.04),
    ("NCCCNCCCCN(CCCN)Cc1ccc2ccccc2c1", "Glutamate NMDA receptor", "=", 4.24),
    ("CC(C)(C)OC(=O)N(CCCN)CCCCN", "Glutamate NMDA receptor", "<", 3.52),
    ("O=C(NCCCCNCCCNC(=O)OCc1ccccc1)OCc1ccccc1", "Glutamate NMDA receptor", "=", 4.25),
    ("NCCCCN(CCCN)Cc1ccccc1", "Glutamate NMDA receptor", "<", 3.52),
    ("c1ccc(CCCNCCCCN(CCCNCCCc2ccccc2)CCCc2ccccc2)cc1", "Glutamate NMDA receptor", "=", 5.02),
    ("CC(C)NCCCN(CCCCN(CCCN)Cc1ccc2ccccc2c1)Cc1ccc2ccccc2c1", "Glutamate NMDA receptor", "=", 4.85),
    ("NCCCCN(CCCN)C(=O)OCc1ccccc1", "Glutamate NMDA receptor", "=", 4.75),
    ("NCCCN(CCCCN(CCCN)CCCc1ccccc1)CCCc1ccccc1", "Glutamate NMDA receptor", "=", 4.57),
    ("c1ccc2cc(CNCCCNCCCCNCCCNCc3ccc4ccccc4c3)ccc2c1", "Glutamate NMDA receptor", "=", 5.33),
    ("c1ccc2cc(CN(CCCCNCCCN(Cc3ccc4ccccc4c3)Cc3cccc4ccccc34)Cc3cccc4ccccc34)ccc2c1", "Glutamate NMDA receptor", "=", 4.84),
    ("NCCCCN(CCCN)CCCc1ccccc1", "Glutamate NMDA receptor", "<", 3.52),
    ("CC(C)(C)OC(=O)N(CCCN)CCCCN(CCCN)C(=O)OC(C)(C)C", "Glutamate NMDA receptor", "=", 2.18),
    ("NCCCCN(CCCN)Cc1ccc2ccccc2c1", "Glutamate NMDA receptor", "=", 5.01),
    ("NCCCNCCCCN(CCCN)CCCc1ccccc1", "Glutamate NMDA receptor", "=", 3.74),
    ("NCCCN(CCCCN(CCCN)C(=O)OCc1ccccc1)C(=O)OCc1ccccc1", "Glutamate NMDA receptor", "=", 4.76),
    ("NCCCCN(CCCN)C(=O)c1ccccc1", "Glutamate NMDA receptor", "=", 4.09),
    ("NCCCCN(CCCN)C1c2ccccc2CCc2ccccc21", "Glutamate NMDA receptor", "=", 4.85),
    ("c1ccc(CCCNCCCNCCCCNCCCNCCCc2ccccc2)cc1", "Glutamate NMDA receptor", "=", 5.13),
]

---

# TESTED_SYSTEM: Glutamate NMDA receptor (Rattus norvegicus) (UniProt P35439+Q00959+Q00960+Q00961+Q62645+Q8VHN2+Q9R1M7)
# PROTOCOL_DETAILS: Attenuation at rat NMDA receptor assessed as ratio of inhibition of [3H]MK-801 binding to NMDA receptor in presence to absence of spermine
# Type: protein-complex assay
Label y for high-side Ratio IC50 (at or above 1) and n for low-side Ratio IC50 (below it).

# SMILES_INPUT, CATEGORY_LABEL
measured = [
    ("NCCCN(CCCCN(CCCNCCCc1ccccc1)CCCc1ccccc1)CCCc1ccccc1", "y"),
    ("N=C(N)NCCCN(CCCCN(CCCN)CCCc1ccccc1)CCCc1ccccc1", "y"),
    ("NCCCNCCCCN(CCCN)Cc1ccc2ccccc2c1", "y"),
    ("CC(C)NCCCN(CCCCN(CCCNC(C)C)Cc1ccc2ccccc2c1)Cc1ccc2ccccc2c1", "n"),
    ("CC(C)(C)OC(=O)N(CCCN)CCCCN(CCCN)C(=O)OC(C)(C)C", "y"),
    ("c1ccc(CCCN(CCCNCCCCNCCCN(CCCc2ccccc2)CCCc2ccccc2)CCCc2ccccc2)cc1", "y"),
    ("c1ccc(CCCNCCCNCCCCNCCCNCCCc2ccccc2)cc1", "n"),
    ("O=C(NCCCCNCCCNC(=O)OCc1ccccc1)OCc1ccccc1", "y"),
    ("c1ccc(CCCNCCCN(CCCCN(CCCNCCCc2ccccc2)CCCc2ccccc2)CCCc2ccccc2)cc1", "y"),
    ("NCCCN(CCCCN(CCCN)C(=O)OCc1ccccc1)C(=O)OCc1ccccc1", "y"),
]

---

# TESTED_SYSTEM: Glutamate NMDA receptor (Rattus norvegicus) (UniProt P35439+Q00959+Q00960+Q00961+Q62645+Q8VHN2+Q9R1M7)
# PROTOCOL_DETAILS: Attenuation at rat NMDA receptor assessed as ratio of inhibition of [3H]MK-801 binding to NMDA receptor in presence to absence of spermine
# Type: protein-complex assay
MEASURED_QUANTITY: Ratio IC50

# SMILES_INPUT, MEASURED_QUANTITY, READOUT_RELATION, RESULT
rows = [
    ("NCCCNCCCCNCCCNCCCc1ccccc1", "Ratio IC50", "=", 1.43),
    ("NCCCCN(CCCN)C(=O)c1ccccc1", "Ratio IC50", ">", 10),
    ("c1ccc2cc(CNCCCNCCCCNCCCNCc3ccc4ccccc4c3)ccc2c1", "Ratio IC50", "=", 2.84),
    ("NCCCN(CCCCN(CCCN)Cc1ccccc1)Cc1ccccc1", "Ratio IC50", "=", 4.3),
    ("O=C(Cc1ccccc1)NCCCNCCCCNCCCNC(=O)Cc1ccccc1", "Ratio IC50", ">", 10),
    ("c1ccc(CNCCCNCCCCNCCCNCc2ccccc2)cc1", "Ratio IC50", "=", 2.27),
    ("c1ccc2cc(CN(CCCCNCCCN(Cc3ccc4ccccc4c3)Cc3cccc4ccccc34)Cc3cccc4ccccc34)ccc2c1", "Ratio IC50", "=", 1.66),
    ("c1ccc(CCCNCCCCN(CCCNCCCc2ccccc2)CCCc2ccccc2)cc1", "Ratio IC50", "=", 2.03),
    ("NCCCCN(CCCN)C(=O)OCc1ccccc1", "Ratio IC50", "=", 67),
    ("NCCCN(CCCCN(CCCN)CCCc1ccccc1)CCCc1ccccc1", "Ratio IC50", "=", 2.6),
    ("CC(C)NCCCN(CCCCN(CCCN)Cc1ccc2ccccc2c1)Cc1ccc2ccccc2c1", "Ratio IC50", "=", 1.96),
    ("c1ccc(CNCCCCNCCCNCc2ccccc2)cc1", "Ratio IC50", "=", 5.9),
    ("c1ccc2cc(CN(CCCNCCCCNCCCN(Cc3ccc4ccccc4c3)Cc3ccc4ccccc4c3)Cc3ccc4ccccc4c3)ccc2c1", "Ratio IC50", "=", 1.32),
    ("NCCCCN(CCCN)C1c2ccccc2CCc2ccccc21", "Ratio IC50", "=", 5.1),
    ("c1ccc2c(CNCCCCNCCCNCc3cccc4ccccc34)cccc2c1", "Ratio IC50", "=", 2.2),
    ("N=C(N)NCCCN(CCCCN(CCCNC(=N)N)CCCc1ccccc1)CCCc1ccccc1", "Ratio IC50", "=", 0.63),
    ("NCCCN(CCCCN(CCCN)Cc1ccc2ccccc2c1)Cc1ccc2ccccc2c1", "Ratio IC50", "=", 2.2),
    ("NCCCNCCCCN(CCCN)CCCc1ccccc1", "Ratio IC50", "=", 0.93),
    ("NCCCCN(CCCN)Cc1ccc2ccccc2c1", "Ratio IC50", "=", 13.1),
]
